# target or test system: T1, EsCas13d, nuclease-dead (Eubacterium siraeum, UniProt B0MS50, R295A;H300A;R849A;H854A)
# T1 sequence: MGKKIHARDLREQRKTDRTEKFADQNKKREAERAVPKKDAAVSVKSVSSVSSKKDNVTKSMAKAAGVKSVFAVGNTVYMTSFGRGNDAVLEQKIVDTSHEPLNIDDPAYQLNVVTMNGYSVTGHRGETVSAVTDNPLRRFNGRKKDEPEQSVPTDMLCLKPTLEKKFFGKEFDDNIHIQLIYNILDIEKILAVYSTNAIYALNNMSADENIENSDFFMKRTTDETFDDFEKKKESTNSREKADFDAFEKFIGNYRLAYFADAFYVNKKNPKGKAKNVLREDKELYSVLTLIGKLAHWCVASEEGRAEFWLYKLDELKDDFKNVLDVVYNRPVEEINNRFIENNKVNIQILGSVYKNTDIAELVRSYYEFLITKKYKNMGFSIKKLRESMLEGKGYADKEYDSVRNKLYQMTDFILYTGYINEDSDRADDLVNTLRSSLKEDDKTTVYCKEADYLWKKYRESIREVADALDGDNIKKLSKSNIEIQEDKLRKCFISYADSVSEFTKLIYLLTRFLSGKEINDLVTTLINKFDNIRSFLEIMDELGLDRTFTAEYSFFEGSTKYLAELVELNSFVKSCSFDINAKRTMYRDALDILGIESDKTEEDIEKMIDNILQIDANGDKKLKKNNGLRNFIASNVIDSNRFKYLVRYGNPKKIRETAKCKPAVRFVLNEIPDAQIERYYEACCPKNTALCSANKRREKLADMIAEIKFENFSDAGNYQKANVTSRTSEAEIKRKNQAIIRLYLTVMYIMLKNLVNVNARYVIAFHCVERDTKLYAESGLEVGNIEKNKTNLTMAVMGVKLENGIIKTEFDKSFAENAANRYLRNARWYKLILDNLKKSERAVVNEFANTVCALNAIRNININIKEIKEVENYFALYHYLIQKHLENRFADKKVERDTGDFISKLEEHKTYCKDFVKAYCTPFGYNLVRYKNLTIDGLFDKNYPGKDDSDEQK
# assay details: crRNA (strand 1, pre-loaded); Mg2+; 40 mM Tris-HCl pH 7.5, 150 mM NaCl, 6 mM MgCl2, 1 mM DTT, 0.1% Tween-20, 0.2 mg/ml BSA; 25 C; 10 min per concentration, then washed
# condition parameters: tags: His6-TwinStrep-SUMO cleaved; N-terminal SNAP kept (SNAP-Surface 488); label: 3' end held by stalled T7 RNA polymerase
measured endpoint: pKd
Remember the convention: pKd equals -log10 of concentration in molar.

>  <binder>
target 2 MT 5'PFS GGA 3'PFS UUU (mixed) RNA 1: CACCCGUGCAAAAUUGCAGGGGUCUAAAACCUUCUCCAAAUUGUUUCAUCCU RNA 2: GGGAAUGGAUCCACAUCUACGAAUUCGGAAGGAUGAAACAAUUUGGAGAAGUUUAGAUCGGAAGAGCACACGU

>  <measured endpoint>
pKd

>  <measured value>
7.39

$$$$
>  <binder>
target 1 MT 5'PFS GGA 3'PFS CAA (mixed) RNA 1: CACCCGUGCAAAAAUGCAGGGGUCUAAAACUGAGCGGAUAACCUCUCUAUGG RNA 2: GGGAAUGGAUCCACAUCUACGAAUUCGGACCAUAGAGAGGUUAUCCGCUCACAAAGAUCGGAAGAGCACACGU

>  <measured endpoint>
pKd

>  <measured value>
7.28

$$$$

Proceed to the following item.
State its pKd for this binder: target 1 del8,del19 (mixed) RNA 1: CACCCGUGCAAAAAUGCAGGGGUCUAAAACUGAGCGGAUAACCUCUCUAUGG RNA 2: GGGAAUGGAUCCACAUCUACGAAUUCGUACCAAGAGAGGUUACCGCUCACCGAGAUCGGAAGAGCACACGU
7.19

Values were extracted from paper PMC10786891.
